experiment: Solubility in phosphate buffer at pH 7.4; type: physicochemical
value_type: solubility (µM)

Please review the following examples before continuing.
- O=S1(=O)NC(Nc2cccc(F)c2Cl)=Nc2c(O)cc(Cl)cc21: 160
- O=[N+]([O-])c1cc(O)c2c(c1)S(=O)(=O)N=C(Nc1ccccc1Br)N2: 233

a. O=S1(=O)N=C(Nc2ccccc2Cl)Nc2c(O)cc(Cl)cc21
b. O=[N+]([O-])c1cc(O)c2c(c1)S(=O)(=O)N=C(Nc1ccccc1Oc1ccccc1)N2
c. O=S1(=O)NC(Nc2ccccc2Br)=Nc2c(O)cc(Cl)cc21
Exam item: rank_up(items): orders items by reported solubility in ascending numerical order. Would you mind listing the labels in the order asked for?
Marked response: b, c, a
(b: 2 µM, c: 31 µM, a: 68 µM)

----------
biological target: UniProt:P05177
Sequence (P05177 whole entry): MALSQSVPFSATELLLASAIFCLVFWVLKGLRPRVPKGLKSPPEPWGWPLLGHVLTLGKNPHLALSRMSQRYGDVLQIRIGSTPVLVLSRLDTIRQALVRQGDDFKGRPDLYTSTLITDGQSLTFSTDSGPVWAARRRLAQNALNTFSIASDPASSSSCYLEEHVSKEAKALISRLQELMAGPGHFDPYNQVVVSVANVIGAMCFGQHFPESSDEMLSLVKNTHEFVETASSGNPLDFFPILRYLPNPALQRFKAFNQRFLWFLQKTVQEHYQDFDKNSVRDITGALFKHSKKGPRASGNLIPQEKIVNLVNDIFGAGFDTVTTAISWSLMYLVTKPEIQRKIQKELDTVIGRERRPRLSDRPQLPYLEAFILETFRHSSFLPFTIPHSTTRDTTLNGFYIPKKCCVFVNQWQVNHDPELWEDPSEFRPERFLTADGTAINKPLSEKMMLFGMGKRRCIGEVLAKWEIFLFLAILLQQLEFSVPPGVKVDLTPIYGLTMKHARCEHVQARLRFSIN
value_type: IC50

Exam item: Given `O=[N+]([O-])c1cc(O)c2c(c1)S(=O)(=O)N=C(Nc1ccccc1Cl)N2` , report its IC50 on UniProt:P05177.
Marked response: > 25 µM

----------
target: Adenosine receptor A2a (Homo sapiens, UniProt P29274)
Sequence (P29274 whole entry): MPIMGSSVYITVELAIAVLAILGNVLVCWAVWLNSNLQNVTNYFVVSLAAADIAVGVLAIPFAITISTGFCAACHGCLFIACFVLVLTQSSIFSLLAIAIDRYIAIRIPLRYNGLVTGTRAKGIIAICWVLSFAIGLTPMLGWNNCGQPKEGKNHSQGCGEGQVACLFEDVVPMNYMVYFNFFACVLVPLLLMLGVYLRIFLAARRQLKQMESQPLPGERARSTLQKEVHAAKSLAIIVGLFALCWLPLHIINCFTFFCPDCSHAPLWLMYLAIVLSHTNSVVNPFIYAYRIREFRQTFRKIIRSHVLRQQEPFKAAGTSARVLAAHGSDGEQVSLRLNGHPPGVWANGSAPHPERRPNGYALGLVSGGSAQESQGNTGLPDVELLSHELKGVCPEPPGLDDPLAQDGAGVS
value_type: IC50 (µM)
Your answer should be a plain number; it is taken to be in µM.

Exam item: For the compound `O=[N+]([O-])c1cc(O)c2c(c1)S(=O)(=O)N=C(Nc1ccccc1Oc1ccccc1)N2` , give its measured IC50 value.
Marked response: 25

----------
molecular target: 5-hydroxytryptamine receptor 1B (Homo sapiens, UniProt P28222)
Sequence (P28222 whole entry): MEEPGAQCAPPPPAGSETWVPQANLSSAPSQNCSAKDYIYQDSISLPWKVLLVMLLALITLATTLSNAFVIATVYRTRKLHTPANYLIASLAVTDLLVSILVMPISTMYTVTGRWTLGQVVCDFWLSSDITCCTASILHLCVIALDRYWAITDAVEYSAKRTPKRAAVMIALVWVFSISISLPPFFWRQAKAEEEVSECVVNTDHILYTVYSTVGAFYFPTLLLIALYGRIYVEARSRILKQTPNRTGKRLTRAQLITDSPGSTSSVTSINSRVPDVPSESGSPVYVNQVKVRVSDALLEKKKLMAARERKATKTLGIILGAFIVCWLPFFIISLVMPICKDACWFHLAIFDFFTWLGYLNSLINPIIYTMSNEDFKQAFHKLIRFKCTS
value_type: IC50

Exam item: Fetch value of IC50 on 5-hydroxytryptamine receptor 1B (Homo sapiens, UniProt P28222) for `O=[N+]([O-])c1cc(O)c2c(c1)S(=O)(=O)N=C(Nc1ccccc1Oc1ccccc1)N2` .
Marked response: > 3.2 µM

----------
test: Bioavailability in rat at 3.2 mg/kg, po; assay type: ADME, organism-based; settings: in vivo
value_type: bioavailability (%)
Response body: numeric value in %, unit text excluded.

Exam item: Please give the documented bioavailability of `O=[N+]([O-])c1cc(O)c2c(c1)S(=O)(=O)N=C(Nc1ccccc1Cl)N2`
Marked response: 5

----------
biological target: D(2) dopamine receptor (Homo sapiens); assay: Inhibition of dopamine D2 receptor
Sequence (P14416 whole entry): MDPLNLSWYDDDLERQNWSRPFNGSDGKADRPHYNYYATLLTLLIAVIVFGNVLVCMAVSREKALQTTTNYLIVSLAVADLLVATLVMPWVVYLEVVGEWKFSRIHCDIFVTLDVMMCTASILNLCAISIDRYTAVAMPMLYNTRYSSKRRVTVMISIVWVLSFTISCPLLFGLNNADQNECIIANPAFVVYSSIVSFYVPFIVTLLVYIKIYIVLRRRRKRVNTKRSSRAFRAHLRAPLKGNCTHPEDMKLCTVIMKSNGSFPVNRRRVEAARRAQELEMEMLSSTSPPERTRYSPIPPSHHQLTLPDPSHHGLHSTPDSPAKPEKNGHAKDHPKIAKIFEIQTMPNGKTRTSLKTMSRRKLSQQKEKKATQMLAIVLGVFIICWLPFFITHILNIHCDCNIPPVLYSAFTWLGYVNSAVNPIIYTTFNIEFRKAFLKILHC
pIC50: −log10 of the molar value.
value_type: pIC50

Exam item: Tell me its pIC50 given `O=[N+]([O-])c1cc(O)c2c(c1)S(=O)(=O)N=C(Nc1ccccc1Oc1ccccc1)N2` as the entry.
Marked response: < 5.49

----------
experiment: Clearance in rat at 1.6 mg/kg, iv and […] mg/kg, po; format: ADME, organism-based; conditions: in vivo
value_type: clearance (mL/min/kg)
Only the number, expressed in mL/min/kg, is required.

Exam item: In one line, give reported clearance of the entry `O=[N+]([O-])c1cc(O)c2c(c1)S(=O)(=O)N=C(Nc1ccccc1Cl)N2` .
Marked response: 23

----------
Molecular target: C-X-C chemokine receptor type 1 (Homo sapiens)
Sequence (P25024 whole entry): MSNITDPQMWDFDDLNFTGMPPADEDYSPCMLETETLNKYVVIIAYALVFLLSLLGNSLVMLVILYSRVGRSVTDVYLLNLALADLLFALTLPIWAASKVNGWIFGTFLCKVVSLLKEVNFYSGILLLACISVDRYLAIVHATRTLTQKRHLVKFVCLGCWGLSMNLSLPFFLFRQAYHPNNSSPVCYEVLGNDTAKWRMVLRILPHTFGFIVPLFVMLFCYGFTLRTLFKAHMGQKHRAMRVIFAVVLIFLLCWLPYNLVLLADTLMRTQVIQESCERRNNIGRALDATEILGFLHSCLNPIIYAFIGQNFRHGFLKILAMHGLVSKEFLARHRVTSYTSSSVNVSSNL
Experiment: Displacement of human recombinant [125I]IL8 from CXCR1 receptor expressed in CHO cells
pIC50: −log10 of the molar value.
value_type: pIC50

These recorded examples may help you get a feel for the data.
- O=S1(=O)N=C(Nc2ccccc2Oc2ccccc2)Nc2c(O)cc(Cl)cc21: 4.70
- O=[N+]([O-])c1cc(O)c2c(c1)S(=O)(=O)N=C(Nc1ccccc1Cl)N2: 4.92
- O=[N+]([O-])c1cc(O)c2c(c1)S(=O)(=O)N=C(Nc1ccccc1Br)N2: 5.49
- O=S1(=O)NC(Nc2cccc(F)c2Cl)=Nc2c(O)cc(Cl)cc21: 4.89
- O=S1(=O)N=C(Nc2ccccc2Cl)Nc2c(O)cc(Cl)cc21: 4.62

1. O=[N+]([O-])c1cc(O)c2c(c1)S(=O)(=O)N=C(Nc1ccccc1Oc1ccccc1)N2
2. O=S1(=O)NC(Nc2ccccc2Br)=Nc2c(O)cc(Cl)cc21
Exam item: When the recorded pIC50 values are compared, which is smaller: that of 1 or that of 2 ? Answer by quoting the chosen item's label.
Marked response: 2
(2: 4.89, 1: 5.12)

----------
target: Beta-1 adrenergic receptor (Homo sapiens, UniProt P08588); assay: Inhibition of adrenergic beta-1 receptor
Sequence (P08588 whole entry): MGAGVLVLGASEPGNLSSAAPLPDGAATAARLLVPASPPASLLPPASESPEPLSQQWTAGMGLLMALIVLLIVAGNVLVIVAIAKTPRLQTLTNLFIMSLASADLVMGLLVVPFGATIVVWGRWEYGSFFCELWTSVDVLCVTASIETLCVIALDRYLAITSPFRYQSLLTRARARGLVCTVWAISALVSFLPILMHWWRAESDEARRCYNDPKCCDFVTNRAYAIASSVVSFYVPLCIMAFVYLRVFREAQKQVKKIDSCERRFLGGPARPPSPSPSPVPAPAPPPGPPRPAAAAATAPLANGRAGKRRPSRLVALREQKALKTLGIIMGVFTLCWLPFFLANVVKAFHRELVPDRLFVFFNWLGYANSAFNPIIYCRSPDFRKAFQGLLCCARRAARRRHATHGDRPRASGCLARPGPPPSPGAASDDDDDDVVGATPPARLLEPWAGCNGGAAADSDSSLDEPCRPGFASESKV
pIC50: −log10 of the molar value.
value_type: pIC50

Exam item: Quick one: give measured pIC50 for `O=[N+]([O-])c1cc(O)c2c(c1)S(=O)(=O)N=C(Nc1ccccc1Oc1ccccc1)N2`
Marked response: < 4.60

----------
target: 5-hydroxytryptamine receptor 1D (Homo sapiens, UniProt P28221)
Sequence (P28221 whole entry): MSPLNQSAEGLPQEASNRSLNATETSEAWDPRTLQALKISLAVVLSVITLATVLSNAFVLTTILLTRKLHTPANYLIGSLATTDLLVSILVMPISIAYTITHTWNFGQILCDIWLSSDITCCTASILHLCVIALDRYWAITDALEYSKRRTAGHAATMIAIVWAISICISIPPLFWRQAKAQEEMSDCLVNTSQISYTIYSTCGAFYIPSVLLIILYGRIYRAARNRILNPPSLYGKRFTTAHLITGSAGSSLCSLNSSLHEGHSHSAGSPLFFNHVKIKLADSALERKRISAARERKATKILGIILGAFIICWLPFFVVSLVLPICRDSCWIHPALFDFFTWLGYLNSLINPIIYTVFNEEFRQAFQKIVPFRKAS
pIC50: −log10 of the molar value.
value_type: pIC50

Exam item: Please tell me the measured pIC50 for `O=[N+]([O-])c1cc(O)c2c(c1)S(=O)(=O)N=C(Nc1ccccc1Oc1ccccc1)N2` ; system: 5-hydroxytryptamine receptor 1D (Homo sapiens, UniProt P28221).
Marked response: < 5.49

----------
molecular target: C-X-C chemokine receptor type 2 (Homo sapiens); experiment: Displacement of human recombinant [125I]IL8 from CXCR2 receptor expressed in CHO cells; type: cell-based
Sequence (P25025 whole entry): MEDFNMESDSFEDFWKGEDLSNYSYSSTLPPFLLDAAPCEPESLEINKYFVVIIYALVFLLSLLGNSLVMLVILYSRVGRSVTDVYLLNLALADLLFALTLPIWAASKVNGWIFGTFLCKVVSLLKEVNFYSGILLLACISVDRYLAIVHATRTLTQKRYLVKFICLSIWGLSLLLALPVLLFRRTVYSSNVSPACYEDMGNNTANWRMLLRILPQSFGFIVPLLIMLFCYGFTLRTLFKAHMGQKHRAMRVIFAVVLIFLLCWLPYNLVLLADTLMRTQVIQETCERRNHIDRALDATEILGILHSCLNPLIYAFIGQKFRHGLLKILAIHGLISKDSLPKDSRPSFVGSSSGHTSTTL
value_type: IC50 (µM)

Example cases with answers are listed next.
- O=S1(=O)N=C(Nc2ccccc2Br)Nc2c(O)cc(Br)cc21: 0.07
- O=S1(=O)NC(Nc2ccccc2C(F)(F)F)=Nc2c(O)cc(Cl)cc21: 0.83
- O=S1(=O)NC(Nc2ccc(Br)cc2)=Nc2c(O)cc(Cl)cc21: 5.1
- O=S1(=O)N=C(Nc2ccccc2F)Nc2c(O)cc(Cl)cc21: 0.74

P. O=S1(=O)NC(Nc2ccccc2Br)=Nc2c(O)cc(Cl)cc21
Q. O=S1(=O)NC(NCc2ccccc2)=Nc2c(O)cc(Cl)cc21
R. O=S1(=O)N=C(Nc2ccccc2Br)Nc2c(O)ccc(Cl)c21
S. O=S1(=O)N=C(Nc2ccccc2Cl)Nc2c(O)cccc21
Exam item: // ranking: key=IC50, reverse=True The labels, placed in the requested order, form the answer.
Marked response: Q, S, R, P

1. O=S1(=O)NC(Nc2cccc(F)c2Cl)=Nc2c(O)cc(Cl)cc21
2. O=S1(=O)N=C(NC2CCCC2)Nc2c(O)cc(Cl)cc21
Exam item: Would you kindly point out which of 1 and 2 has the smaller IC50 figure? Please identify the chosen entry by its label.
Marked response: 1

----------
biological target: Mitogen-activated protein kinase 14 (Homo sapiens, UniProt Q16539); test: Inhibition of P38alpha
Sequence (Q16539 whole entry): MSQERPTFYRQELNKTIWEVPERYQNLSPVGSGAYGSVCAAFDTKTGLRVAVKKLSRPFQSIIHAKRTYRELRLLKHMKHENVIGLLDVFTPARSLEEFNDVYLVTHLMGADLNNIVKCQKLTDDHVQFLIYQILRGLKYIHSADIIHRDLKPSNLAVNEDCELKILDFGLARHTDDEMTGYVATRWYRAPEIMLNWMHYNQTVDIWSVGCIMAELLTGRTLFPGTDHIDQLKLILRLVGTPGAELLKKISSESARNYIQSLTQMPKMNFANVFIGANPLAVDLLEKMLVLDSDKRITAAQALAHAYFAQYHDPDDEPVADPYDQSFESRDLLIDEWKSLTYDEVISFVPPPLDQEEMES
value_type: pIC50
// field semantics: pIC50 = negative decimal log of concentration (mol/L)

Exam item: Give the reported value of pIC50 for this record: `O=[N+]([O-])c1cc(O)c2c(c1)S(=O)(=O)N=C(Nc1ccccc1Oc1ccccc1)N2`
Marked response: 4.60

----------
molecular target: Cytochrome P450 3A4 (Homo sapiens, UniProt P08684)
Sequence (P08684 whole entry): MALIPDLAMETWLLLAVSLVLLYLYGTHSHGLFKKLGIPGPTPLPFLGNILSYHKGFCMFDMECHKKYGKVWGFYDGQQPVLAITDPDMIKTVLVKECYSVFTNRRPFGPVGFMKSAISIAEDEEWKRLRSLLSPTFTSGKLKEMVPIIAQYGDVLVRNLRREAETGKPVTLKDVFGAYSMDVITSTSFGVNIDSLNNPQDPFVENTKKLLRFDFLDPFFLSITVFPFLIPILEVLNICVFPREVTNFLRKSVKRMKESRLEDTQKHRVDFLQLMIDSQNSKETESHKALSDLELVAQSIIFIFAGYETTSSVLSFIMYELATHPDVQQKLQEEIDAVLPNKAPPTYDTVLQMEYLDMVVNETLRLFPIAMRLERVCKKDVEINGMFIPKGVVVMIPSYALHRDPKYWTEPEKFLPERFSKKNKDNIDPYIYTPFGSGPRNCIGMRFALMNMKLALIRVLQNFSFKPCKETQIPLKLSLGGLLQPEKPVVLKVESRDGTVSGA
pIC50: −log10 of the molar value.
value_type: pIC50

Exam item: Give me measured pIC50, please, for this compound: `O=[N+]([O-])c1cc(O)c2c(c1)S(=O)(=O)N=C(Nc1ccccc1Cl)N2`
Marked response: < 4.60

----------
Target protein (sequence): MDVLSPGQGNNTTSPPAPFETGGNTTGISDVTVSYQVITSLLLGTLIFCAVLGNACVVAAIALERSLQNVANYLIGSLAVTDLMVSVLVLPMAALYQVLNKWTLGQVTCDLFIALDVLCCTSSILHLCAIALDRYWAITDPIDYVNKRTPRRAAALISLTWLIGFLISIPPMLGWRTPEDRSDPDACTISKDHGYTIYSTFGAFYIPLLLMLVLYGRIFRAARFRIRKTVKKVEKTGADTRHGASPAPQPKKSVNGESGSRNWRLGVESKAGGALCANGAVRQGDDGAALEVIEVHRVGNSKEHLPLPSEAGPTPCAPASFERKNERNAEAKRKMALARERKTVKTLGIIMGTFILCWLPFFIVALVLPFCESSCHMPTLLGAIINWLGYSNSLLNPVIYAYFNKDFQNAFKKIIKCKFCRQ
value_type: IC50

Exam item: Determine its reported IC50: `O=[N+]([O-])c1cc(O)c2c(c1)S(=O)(=O)N=C(Nc1ccccc1Oc1ccccc1)N2`
Marked response: > 3.2 µM

----------
molecular target: 5-hydroxytryptamine receptor 2C (Homo sapiens, UniProt P28335)
Sequence (P28335 whole entry): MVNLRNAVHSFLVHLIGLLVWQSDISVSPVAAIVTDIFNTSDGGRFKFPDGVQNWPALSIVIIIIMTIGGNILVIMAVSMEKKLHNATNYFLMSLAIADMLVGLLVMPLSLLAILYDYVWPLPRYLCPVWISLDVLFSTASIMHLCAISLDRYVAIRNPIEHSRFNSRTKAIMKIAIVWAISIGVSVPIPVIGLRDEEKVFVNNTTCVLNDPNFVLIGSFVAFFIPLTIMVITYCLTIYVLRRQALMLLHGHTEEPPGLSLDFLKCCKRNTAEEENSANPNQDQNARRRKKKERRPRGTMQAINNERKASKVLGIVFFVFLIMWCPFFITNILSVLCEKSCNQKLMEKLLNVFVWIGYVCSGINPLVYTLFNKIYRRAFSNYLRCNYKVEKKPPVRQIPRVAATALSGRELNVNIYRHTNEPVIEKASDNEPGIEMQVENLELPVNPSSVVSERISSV
pIC50: −log10 of the molar value.
value_type: pIC50

Exam item: Supply measured pIC50 of `O=[N+]([O-])c1cc(O)c2c(c1)S(=O)(=O)N=C(Nc1ccccc1Oc1ccccc1)N2` in your reply.
Marked response: < 5.00
